Cited source: paper PMC9962304

- ASSAYED SYSTEM: FimH lectin domain (amino acids 1-158) (Escherichia coli, UniProt P08191)
- Sequence (P08191 22-179): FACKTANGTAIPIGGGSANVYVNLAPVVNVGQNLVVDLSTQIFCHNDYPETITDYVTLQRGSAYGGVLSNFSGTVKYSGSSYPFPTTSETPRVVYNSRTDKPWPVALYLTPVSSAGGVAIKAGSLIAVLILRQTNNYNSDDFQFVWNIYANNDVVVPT
Quick reference: IC50 of the listed items.
MEASUREMENT KIND: IC50

OC[C@H]1O[C@H](C/C=C/c2ccc3ncccc3c2)[C@@H](O)[C@@H](O)[C@@H]1O: 3.17 nM
CO[C@H]1O[C@H](CO)[C@@H](O)[C@H](O)[C@@H]1O [Compound 23, methyl α-D-mannopyranoside]: 2810 nM
CCCCCCCO[C@H]1O[C@H](CO)[C@@H](O)[C@H](O)[C@@H]1O [Compound 21, heptyl α-D-mannopyranoside]: 19.4 nM
OC[C@H]1O[C@H](C/C=C/c2ccc(-c3ccccc3)cc2)[C@@H](O)[C@@H](O)[C@@H]1O: 30.3 nM
OC[C@H]1O[C@H](C/C=C/c2ccccc2-c2ccncc2)[C@@H](O)[C@@H](O)[C@@H]1O: 0.82 nM
O=[N+]([O-])c1ccc(O[C@H]2O[C@H](CO)[C@@H](O)[C@H](O)[C@@H]2O)cc1 [Compound 22, para-nitrophenyl α-D-mannopyranoside]: 74.1 nM
